experiment: Octanol-water partition coefficient, log D at pH 7.4; type: physicochemical

- substance.smiles: "C[C@@H](O)[C@@H]1NC(=O)[C@H](CCCCN)NC(=O)[C@@H](Cc2c[nH]c3ccccc23)NC(=O)[C@H](Cc2ccc(O)cc2)NC(=O)[C@@H](NC(=O)[C@@H](Cc2ccccc2)NC(=O)CCCCCn2cc(COc3cccc(C(=O)NS(=O)(=O)CCNC(=O)CN4CCN(CC(=O)O)CCN(CC(=O)O)CCN(CC(=O)O)CC4)c3)nn2)CSSC[C@@H](C(=O)N[C@H](CO)[C@@H](C)O)NC1=O"
  logD: -2.2
- substance.smiles: "C[C@@H](O)[C@@H]1NC(=O)[C@H](CCCCN)NC(=O)[C@@H](Cc2c[nH]c3ccccc23)NC(=O)[C@H](Cc2ccc(O)cc2)NC(=O)[C@@H](NC(=O)[C@@H](Cc2ccccc2)NC(=O)CCCCCn2cc(CO)nn2)CSSC[C@@H](C(=O)N[C@H](CO)[C@@H](C)O)NC1=O"
  logD: -3.59
